- System: barnyardgrass
- Assay Notes: Test A preemergence
- Format: in vivo, Echinochloa crus-galli
- Measurement Conditions: preemergence, 500 g ai/ha, visual injury after approx. 10 days, 0 to 100 scale (0 no effect, 100 complete control)
Measure Name: Barnyardgrass plant response rating
Enter the number alone.

// assay barnyardgrass, entry COCc1cc(C(=O)NCC(F)(F)F)nn1Cc1cc(C(F)(F)C(F)(F)F)nn1C , Barnyardgrass plant response rating value = 80

// assay barnyardgrass, entry CCc1cc(C(=O)NOC(C)C)nn1Cc1ccnc(OC(F)F)c1 , Barnyardgrass plant response rating value = 100

// assay barnyardgrass, entry CCCNC(=O)c1cc(CCF)n(Cc2ccnc(C(F)(F)F)c2)n1 , Barnyardgrass plant response rating value = 100

// assay barnyardgrass, entry CCc1cc(C(=O)NC2CC2)nn1Cc1cccc(C(F)(F)F)n1 , Barnyardgrass plant response rating value = 0

// assay barnyardgrass, entry COCc1cc(C(=O)NC(C)C)nn1Cc1ccnc(C(F)(F)F)c1 , Barnyardgrass plant response rating value = 100

// assay barnyardgrass, entry CCc1cc(C(=O)NC2CC2)nn1Cc1cc(C(F)(F)F)no1 , Barnyardgrass plant response rating value = 100

* * *

- System: johnsongrass
- Assay Notes: Test C preemergence
- Assay type: in vivo, Sorghum halepense
- Measurement Conditions: preemergence, 62 g ai/ha; scale 0 to 100 (0 no effect, 100 complete control), 13 to 15 days
Measure Name: Johnsongrass plant response rating

Recorded Johnsongrass plant response rating (compound CCCNC(=O)c1cc(OCC)n(Cc2ccnc(OC(F)F)c2)n1 [Compound 136] ): 85

Recorded Johnsongrass plant response rating (compound CCCNC(=O)c1cc(CCF)n(Cc2ccnc(C(F)(F)F)c2)n1 [Compound 177] ): 70

Recorded Johnsongrass plant response rating (compound CCCNC(=O)c1cc(CC)n(Cc2nc(C(F)(F)F)nn2C)n1 [Compound 109] ): 90

Recorded Johnsongrass plant response rating (compound CCCc1cc(C(=O)NC(C)C)nn1Cc1ccnc(C(F)(F)F)c1 [Compound 186] ): 98

* * *

- Test system: pigweed
- Assay Notes: Test A preemergence
- Assay type: in vivo, Amaranthus retroflexus
- Measurement Conditions: preemergence, 500 g ai/ha, visual injury after approx. 10 days, 0 to 100 scale (0 no effect, 100 complete control)
Measure Name: Pigweed plant response rating
Enter the number alone.

Recorded Pigweed plant response rating (molecule CCCCNC(=O)c1cc(Br)n(Cc2cccc(C(F)(F)F)c2)n1 ): 0

Recorded Pigweed plant response rating (molecule CCc1cc(C(=O)NC2CC2)nn1Cc1nnc(C(F)(F)F)o1 ): 100

Recorded Pigweed plant response rating (molecule CCCCc1cc(C(=O)NOCC)nn1Cc1ccnc(C(F)(F)F)c1 ): 100

Recorded Pigweed plant response rating (molecule CCc1cc(C(=O)NC(C)C)nn1Cc1ccnc(OCC(F)(F)F)c1 ): 100

Recorded Pigweed plant response rating (molecule CCCc1cc(C(=O)Nc2ccc(F)cc2)nn1Oc1ccnc(C(F)(F)F)c1 ): 0

Recorded Pigweed plant response rating (molecule O=C(NCC(F)(F)F)c1cc(CCF)n(Cc2ccnc(C(F)(F)F)c2)n1 ): 100

Recorded Pigweed plant response rating (molecule CCCNC(=O)c1cc(COC)n(Cc2ccnc(C(F)(F)F)c2)n1 ): 100

Recorded Pigweed plant response rating (molecule COCc1cc(C(=O)NC2CC2)nn1Cc1ccnc(C(F)(F)F)c1 ): 100

Recorded Pigweed plant response rating (molecule CCc1cc(C(=O)NCC(F)(F)F)nn1Cc1cc(C(F)(F)F)nn1C ): 100
